Data credit: patent US5250542A

molecular target: mu receptor (Rattus norvegicus, UniProt P33535); construct: rat whole brain minus cerebellum for mu was homogenized; from tissue; host or cells: brain of male Sprague Dawley rats, whole brain minus cerebellum, homogenate fraction; assay: opioid receptor binding assay, [3H] NAL (tritiated naloxone), mu receptor; set-up: species or system rat (Male Sprague Dawley), brain minus cerebellum
Sequence (P33535 whole entry): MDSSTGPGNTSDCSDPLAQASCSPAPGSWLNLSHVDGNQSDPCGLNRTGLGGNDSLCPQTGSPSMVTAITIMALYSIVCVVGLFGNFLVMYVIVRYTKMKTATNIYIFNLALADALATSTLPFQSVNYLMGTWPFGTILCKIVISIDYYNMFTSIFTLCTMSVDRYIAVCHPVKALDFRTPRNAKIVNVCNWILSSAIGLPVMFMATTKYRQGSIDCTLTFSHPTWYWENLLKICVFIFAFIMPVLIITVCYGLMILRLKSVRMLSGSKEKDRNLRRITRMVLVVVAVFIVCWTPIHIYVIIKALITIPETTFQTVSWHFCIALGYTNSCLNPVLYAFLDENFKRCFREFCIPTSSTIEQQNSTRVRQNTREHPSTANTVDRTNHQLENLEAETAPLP
Structures can show the parent of a compound that is named as a salt.
Assay endpoint: pKi
// pKi: -log10(molar conc.)

Molecule	pKi
CCNC(=O)CNC(=O)C(CCN1CC[C@@](C)(c2cccc(O)c2)[C@@H](C)C1)c1ccccc1 (relative stereo) [Example 15, monohydrochloride monohydrate]	8.97

Q: Give me measured pKi, please, for this molecule: CCNC(=O)CCCNC(=O)C(CC1CCCCC1)CN1CC[C@@](C)(c2cccc(O)c2)[C@@H](C)C1 (some centres unmarked) [Example 42, monohydrate hydrochloride]
Ans: 9.24

Q: Provide measured pKi value, entry: CCOC(=O)C(Cc1ccccc1)CN1CC[C@@](C)(c2cccc(O)c2)[C@@H](C)C1 (relative stereo) [Example 4A, hydrochloride]
Ans: 8.86

Q: Entry CCNC(=O)CNC(=O)C(Cc1ccccc1)CN1CC[C@@](C)(c2cccc(O)c2)[C@@H](C)C1 (some centres unmarked) needs its pKi filled in; supply it.
Ans: 8.89

Q: Please look at this molecule and report its pKi: C[C@H]1CN(CCC(C(=O)N(C)C)c2ccccc2)CC[C@@]1(C)c1cccc(O)c1 (relative stereo) [Example 10, hydrochloride]
Ans: 8.93

----------
target: peripheral opioid receptors (Mus musculus); construct: Mice maintained (6 mice/cage) on 0.01M saccharin water with 1 g/1 morphine sulfate; from tissue; host or cells: living morphine-maintained mice (in vivo test; endogenous receptor); assay: precipitated diarrhea in morphine-maintained mice (peripheral opioid activity) and comparison with the writhing test; type: in vivo; details: higher ratio = greater relative antagonism of peripheral opioid receptors
Sequence (P42866 whole entry): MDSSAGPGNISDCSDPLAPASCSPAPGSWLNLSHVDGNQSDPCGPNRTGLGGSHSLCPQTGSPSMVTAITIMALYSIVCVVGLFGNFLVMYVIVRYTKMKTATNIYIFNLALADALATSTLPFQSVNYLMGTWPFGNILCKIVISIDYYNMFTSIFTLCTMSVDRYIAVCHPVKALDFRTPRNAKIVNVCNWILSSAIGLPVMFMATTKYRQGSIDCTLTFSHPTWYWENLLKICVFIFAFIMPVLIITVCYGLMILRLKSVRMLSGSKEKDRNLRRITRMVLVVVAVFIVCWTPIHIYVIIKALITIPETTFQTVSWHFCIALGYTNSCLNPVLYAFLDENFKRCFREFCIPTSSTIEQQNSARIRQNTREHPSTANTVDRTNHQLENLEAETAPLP
Counter-ions that a name gives are not always drawn.
Assay endpoint: Ratio (AD50 mouse writhing test / ED50 mouse diarrhea test)

Example entries and their recorded answers appear below.
Molecule	Measured value
CCOC(=O)CCCNC(=O)C(CCN1CC[C@@](C)(c2cccc(O)c2)[C@@H](C)C1)C1CCCCC1 (relative stereo) [Example 23, monohydrochloride monohydrate]	> 140
C[C@H]1CN(CC(Cc2ccccc2)C(=O)N(C)CC(=O)O)CC[C@@]1(C)c1cccc(O)c1 (relative stereo) [Example 66, monohydrate]	< 4.7

As a next step, examine the molecule that follows.
Q: Return Ratio (AD50 mouse writhing test / ED50 mouse diarrhea test) for the following molecule: CCNC(=O)CNC(=O)CNC(=O)C(Cc1ccccc1)CN1CC[C@@](C)(c2cccc(O)c2)[C@@H](C)C1 (relative stereo)
Ans: > 31

----------
molecular target: mu receptor (Rattus norvegicus, UniProt P33535); construct: rat whole brain minus cerebellum for mu was homogenized; from tissue; host or cells: brain of male Sprague Dawley rats, whole brain minus cerebellum, homogenate fraction; assay: opioid receptor binding assay, [3H] NAL (tritiated naloxone), mu receptor; design: species or system rat (Male Sprague Dawley), brain minus cerebellum; settings: 20 min, read-out: % displacement at 10 nM, 10 nM test compound; [3H] naloxone 0.5 nM
Where a name gives a salt, the structure may show the parent alone.
# inhibition at 0.01 µM listing for each entry below
Give the quantity in %, number only.

Worked examples, 5 molecules total:
Molecule	Assay endpoint	Measured value
CC(C)COC(=O)CNC(=O)C(Cc1ccccc1)CN1CC[C@](C)(c2cccc(O)c2)[C@H](C)C1 (single isomer, unassigned) [Example 98D]	inhibition at 0.01 µM	57
C[C@H]1CN(CC(Cc2ccccc2)C(=O)NCC(=O)NCC(=O)NCc2ccccc2)CC[C@@]1(C)c1cccc(O)c1 (relative stereo) [Example 73]	inhibition at 0.01 µM	84
C[C@H]1CN(CC(CC2CCCCC2)C(=O)O)CC[C@@]1(C)c1cccc(O)c1 (relative stereo) [Example 5B, monohydrate]	inhibition at 0.01 µM	93
C[C@H]1CN(CCC(C(=O)NCCC(N)=O)C2CCCCC2)CC[C@@]1(C)c1cccc(O)c1 (relative stereo) [Example 17, monohydrochloride]	inhibition at 0.01 µM	97
C[C@H]1CN(CCC(C(=O)N(C)C)c2ccccc2)CC[C@@]1(C)c1cccc(O)c1 (relative stereo) [Example 10, hydrochloride]	inhibition at 0.01 µM	89

// moving on: another record for inhibition at 0.01 µM
Q: Answer with the recorded inhibition at 0.01 µM for the molecule listed here: CNC(=O)CNC(=O)C(CC1CCCCC1)CN1CC[C@@](C)(c2cccc(O)c2)[C@@H](C)C1 (relative stereo) [Example 32, monohydrochloride]
Ans: 97
